biological target: CYP2C19 (Homo sapiens)
Sequence (P33261 whole entry): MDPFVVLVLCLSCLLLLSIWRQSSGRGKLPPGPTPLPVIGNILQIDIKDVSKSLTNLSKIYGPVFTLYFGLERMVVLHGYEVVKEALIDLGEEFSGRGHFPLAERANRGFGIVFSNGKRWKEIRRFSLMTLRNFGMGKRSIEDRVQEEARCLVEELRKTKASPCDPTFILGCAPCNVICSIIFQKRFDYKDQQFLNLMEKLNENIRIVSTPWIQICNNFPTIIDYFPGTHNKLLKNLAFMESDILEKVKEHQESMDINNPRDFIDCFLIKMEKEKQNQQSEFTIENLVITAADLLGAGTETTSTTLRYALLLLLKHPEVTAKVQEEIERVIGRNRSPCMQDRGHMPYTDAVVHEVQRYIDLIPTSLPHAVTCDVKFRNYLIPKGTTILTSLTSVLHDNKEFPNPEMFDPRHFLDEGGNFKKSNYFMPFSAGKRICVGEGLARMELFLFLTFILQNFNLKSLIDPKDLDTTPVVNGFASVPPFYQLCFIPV

{"molecule smiles": "COc1cc2c(cc1CC=C(C)C)C(=O)C[C@@H](c1ccc(O)cc1)O2", "tgt": "CYP2C19 (Homo sapiens)", "unit info": "nM", "Ki": 1860}

----------
target: CYP2C9 (Homo sapiens)
Sequence (P11712 whole entry): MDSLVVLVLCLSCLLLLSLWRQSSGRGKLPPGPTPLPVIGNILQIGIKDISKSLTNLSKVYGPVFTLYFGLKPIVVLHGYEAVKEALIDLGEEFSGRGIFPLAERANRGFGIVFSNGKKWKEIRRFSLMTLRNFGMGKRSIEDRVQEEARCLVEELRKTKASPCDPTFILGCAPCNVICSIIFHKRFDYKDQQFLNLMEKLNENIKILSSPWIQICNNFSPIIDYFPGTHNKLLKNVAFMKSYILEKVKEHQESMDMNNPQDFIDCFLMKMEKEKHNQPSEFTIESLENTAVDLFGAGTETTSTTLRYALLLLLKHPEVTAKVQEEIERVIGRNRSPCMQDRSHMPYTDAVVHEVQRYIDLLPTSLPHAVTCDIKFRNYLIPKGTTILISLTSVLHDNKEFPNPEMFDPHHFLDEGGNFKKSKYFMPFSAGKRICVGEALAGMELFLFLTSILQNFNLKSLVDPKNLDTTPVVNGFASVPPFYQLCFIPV

{"compound": "COc1cc2c(cc1CC=C(C)C)C(=O)C[C@@H](c1ccc(O)cc1)O2 [bavachinin]", "IC50": "280 nM"}

----------
Target protein (sequence): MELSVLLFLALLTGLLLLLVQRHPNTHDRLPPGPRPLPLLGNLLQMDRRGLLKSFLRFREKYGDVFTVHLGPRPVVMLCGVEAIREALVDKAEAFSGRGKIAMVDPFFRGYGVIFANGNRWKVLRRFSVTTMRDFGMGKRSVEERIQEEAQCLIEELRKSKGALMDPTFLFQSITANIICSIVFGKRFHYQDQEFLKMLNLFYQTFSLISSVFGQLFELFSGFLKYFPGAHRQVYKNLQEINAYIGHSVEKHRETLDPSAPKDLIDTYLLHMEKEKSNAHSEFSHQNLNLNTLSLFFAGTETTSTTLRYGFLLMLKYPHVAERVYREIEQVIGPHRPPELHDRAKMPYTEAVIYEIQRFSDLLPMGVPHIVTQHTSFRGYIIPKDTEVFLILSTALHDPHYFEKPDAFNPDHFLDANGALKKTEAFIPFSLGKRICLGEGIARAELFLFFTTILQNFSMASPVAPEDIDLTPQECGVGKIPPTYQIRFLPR
pKi: −log10 of the molar value.

{"compound": "COc1cc2c(cc1CC=C(C)C)C(=O)C[C@@H](c1ccc(O)cc1)O2 [bavachinin]", "pKi": 5.82}

----------
Target protein (sequence): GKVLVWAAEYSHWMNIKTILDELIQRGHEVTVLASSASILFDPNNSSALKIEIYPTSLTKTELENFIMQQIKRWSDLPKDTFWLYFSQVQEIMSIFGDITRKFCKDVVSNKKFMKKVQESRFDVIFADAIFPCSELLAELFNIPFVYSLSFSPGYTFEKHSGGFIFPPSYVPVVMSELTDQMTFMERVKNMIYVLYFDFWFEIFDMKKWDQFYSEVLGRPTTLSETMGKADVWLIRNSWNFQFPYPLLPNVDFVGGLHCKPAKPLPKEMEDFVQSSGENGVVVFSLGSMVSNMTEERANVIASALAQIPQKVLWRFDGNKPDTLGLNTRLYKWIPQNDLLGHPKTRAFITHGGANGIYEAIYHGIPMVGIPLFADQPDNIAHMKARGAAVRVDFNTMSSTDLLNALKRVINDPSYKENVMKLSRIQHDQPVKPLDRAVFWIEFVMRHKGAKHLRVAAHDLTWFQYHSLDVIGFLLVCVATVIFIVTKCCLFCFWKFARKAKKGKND
pIC50: −log10 of the molar value.

{"molecule smiles": "COc1cc2c(cc1CC=C(C)C)C(=O)C[C@@H](c1ccc(O)cc1)O2", "pIC50": 5.60}

----------
target: CYP2C9 (Homo sapiens)

{"compound": "COc1cc2c(cc1CC=C(C)C)C(=O)C[C@@H](c1ccc(O)cc1)O2 [bavachinin]", "tgt": "CYP2C9 (Homo sapiens)", "Ki [nM]": 190}

----------
Target: CYP2B6 (Homo sapiens, UniProt P20813)
Sequence (P20813 1-491): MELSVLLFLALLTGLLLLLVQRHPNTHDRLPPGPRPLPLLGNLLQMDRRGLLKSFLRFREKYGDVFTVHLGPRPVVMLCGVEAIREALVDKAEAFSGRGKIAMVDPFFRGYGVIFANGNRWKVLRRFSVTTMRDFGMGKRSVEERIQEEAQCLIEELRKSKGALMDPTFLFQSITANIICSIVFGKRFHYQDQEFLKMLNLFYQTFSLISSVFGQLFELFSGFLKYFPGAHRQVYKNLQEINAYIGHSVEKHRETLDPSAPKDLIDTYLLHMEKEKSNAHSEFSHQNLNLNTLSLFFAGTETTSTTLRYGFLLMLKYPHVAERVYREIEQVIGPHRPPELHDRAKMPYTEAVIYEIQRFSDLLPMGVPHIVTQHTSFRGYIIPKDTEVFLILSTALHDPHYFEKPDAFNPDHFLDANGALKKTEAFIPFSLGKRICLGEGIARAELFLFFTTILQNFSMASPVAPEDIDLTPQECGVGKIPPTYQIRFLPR
observation type: IC50

{"molecule": "COc1cc2c(cc1CC=C(C)C)C(=O)C[C@@H](c1ccc(O)cc1)O2 [bavachinin]", "reported result": "1680 nM"}

----------
target: CYP2C19 (Homo sapiens)

{"molecule smiles": "COc1cc2c(cc1CC=C(C)C)C(=O)C[C@@H](c1ccc(O)cc1)O2", "IC50 / µM": 1.38}

----------
target: UniProtKB P22309
Sequence (P22309 26-533): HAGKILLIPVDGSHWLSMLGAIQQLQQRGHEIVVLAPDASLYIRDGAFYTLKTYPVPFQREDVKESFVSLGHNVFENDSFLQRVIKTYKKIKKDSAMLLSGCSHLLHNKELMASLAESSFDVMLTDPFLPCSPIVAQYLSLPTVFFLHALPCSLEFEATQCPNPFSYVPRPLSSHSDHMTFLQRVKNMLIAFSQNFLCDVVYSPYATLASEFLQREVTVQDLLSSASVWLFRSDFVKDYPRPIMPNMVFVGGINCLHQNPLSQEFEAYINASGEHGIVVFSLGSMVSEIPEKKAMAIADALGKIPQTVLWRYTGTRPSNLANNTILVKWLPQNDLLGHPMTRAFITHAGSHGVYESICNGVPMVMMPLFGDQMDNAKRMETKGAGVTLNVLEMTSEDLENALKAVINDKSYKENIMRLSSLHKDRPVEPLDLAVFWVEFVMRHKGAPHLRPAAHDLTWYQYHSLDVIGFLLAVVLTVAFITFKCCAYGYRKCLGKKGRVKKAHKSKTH
pIC50: −log10 of the molar value.

{"molecule smiles": "COc1cc2c(cc1CC=C(C)C)C(=O)C[C@@H](c1ccc(O)cc1)O2", "pIC50": 4.68}

----------
target: UGT2B7 (Homo sapiens)

{"molecule smiles": "COc1cc2c(cc1CC=C(C)C)C(=O)C[C@@H](c1ccc(O)cc1)O2", "Ki / nM": 1130}
